Tested on: PANC-1
Test: Cytotoxicity against human PANC1 cells after 48 hrs by SRB assay
Type: functional
Conditions: PANC-1, 48 h
Returns: string. Value is rule met if measured TGI is below 2000 nM, and rule not met if it is greater than or equal to it.

// below: answered compounds
{"compoundStructure": "C/C=C1\\NC(=O)[C@H](Cc2ccccc2)NC(=O)[C@@H](C(C)C)NC(=O)[C@@H]([C@H](C)CC)NC(=O)[C@H](NC(=O)[C@H](NC(=O)[C@H](CCCN)NC(=O)[C@H]2CCCN2C(=O)[C@H](NC(=O)[C@H](CCCN)NC(=O)[C@@H](NC(=O)[C@H](NC(=O)CCCC(C)C)C(C)C)[C@@H](C)O)C(C)C)[C@H](C)CC)[C@H](C)OC(=O)[C@H](C(C)C)NC1=O", "answerLabel": "rule not met"}
{"compoundStructure": "C/C=C1\\NC(=O)[C@H](Cc2ccccc2)NC(=O)[C@@H](C(C)C)NC(=O)[C@@H]([C@H](C)CC)NC(=O)[C@H](NC(=O)[C@H](NC(=O)[C@H](CCCC[N+](C)(C)C)NC(=O)[C@H]2CCCN2C(=O)[C@H](NC(=O)[C@@H](NC(=O)[C@@H](NC(=O)[C@H](NC(=O)CC[C@@H](C)CC)C(C)C)[C@@H](C)O)C(C)C)C(C)C)[C@H](C)CC)[C@H](C)OC(=O)[C@H](C(C)C)NC1=O", "answerLabel": "rule not met"}
{"compoundStructure": "C/C=C1\\NC(=O)[C@H](Cc2ccccc2)NC(=O)[C@@H](C(C)C)NC(=O)[C@@H]([C@H](C)CC)NC(=O)[C@H](NC(=O)[C@H](NC(=O)[C@H](CCCCN)NC(=O)[C@H]2CCCN2C(=O)[C@H](NC(=O)[C@@H](NC(=O)[C@@H](NC(=O)[C@H](NC(=O)CCCC(C)C)C(C)C)[C@@H](C)O)C(C)C)C(C)C)[C@H](C)CC)[C@H](C)OC(=O)[C@H](C(C)C)NC1=O", "answerLabel": "rule not met"}

Challenge: Lab note: TGI threshold 2000 nM. Does this compound come in strictly under it? C/C=C1\NC(=O)[C@H](Cc2ccccc2)NC(=O)[C@@H](C(C)C)NC(=O)[C@@H]([C@H](C)CC)NC(=O)[C@H](NC(=O)[C@H](NC(=O)[C@H](CCCN)NC(=O)[C@H]2CCCN2C(=O)[C@H](NC(=O)[C@@H](NC(=O)[C@H](C)NC(=O)[C@H](NC(=O)CCCC(C)C)C(C)C)C(C)C)C(C)C)[C@H](C)CC)[C@H](C)OC(=O)[C@H](C(C)C)NC1=O
Response given: rule met

Challenge: Entry C/C=C1\NC(=O)[C@H](Cc2ccccc2)NC(=O)[C@@H](CCC2CCCCC2)NC(=O)[C@@H](CCC2CCCCC2)NC(=O)[C@H](NC(=O)[C@@H](CCC2CCCCC2)NC(=O)[C@H](CCCN)NC(=O)[C@H]2CCCN2C(=O)[C@H](NC(=O)[C@@H](NC(=O)[C@@H](NC(=O)[C@H](NC(=O)CCCC(C)C)C(C)C)[C@@H](C)O)C(C)C)C(C)C)[C@H](C)OC(=O)[C@H](C(C)C)NC1=O please
Response given: rule met
